Protocol description: soluble on expression in E. coli; label from the status in PepcDB or PDB records
Property name: soluble on expression in E. coli

>  <Biopolymer sequence>
MQDQVIICDLDNTIFDTSSIDPELFASLLHKATEYLSGSFTAEIILSIIQDIVSNPFDRVCEKYGLPKSMILPVLDELNGISLEHSAMVPYEDYAAFRAIPAYKILVTTGFKRLQEEKLRKLQIRQDFDRIIINDPVYANSSKLDIFRELSRELDLKDRKTYVVGDDPASEIKAGRELGFTTVLMVRKEYLSNSYTDYIISSFEGLRDLLRDNMENDYALRK

>  <Property name>
soluble on expression in E. coli

>  <Readout value>
soluble

$$$$
>  <Biopolymer sequence>
GMNKKTQLLEVIAALPEELVDQALNYVQMLQNPIQITPGVCGGQARIRNTRIPVWTLVAYRQQGAPDKELLANYPGLTAEDLSAAWHYYEQNPEQIDREIAQDDLV

>  <Property name>
soluble on expression in E. coli

>  <Readout value>
soluble

$$$$
>  <Biopolymer sequence>
MGSDKIHHHHHHMPLYQPLTPRLFMRQWRASDLPCFARMNADRRVMRFFPASLTRRQSDAMAERCSMLIDSQGWGFWAVEERSSGLFAGMVGLHRPSGDLPFAPCVEVGWRLDPDHWGKGYATEAAAAALDIAFNTLGLHEVVAFTAVLNTPSQAVMRRLGMRHAMDFEHPAVPADSPLRAHCLYRTDKEEHQRRHGL

>  <Property name>
soluble on expression in E. coli

>  <Readout value>
not soluble

$$$$
>  <Biopolymer sequence>
MGSDKIHHHHHHMCNSYLEYTAAGVSDLRPYQPGKPLAELERELGIRDAIKLASNENPLGPSPLALAAVREVLPALAQYPEGSAPELRALLARQLDLDPGQFIFGNGSDQVVELAVRALAGPGTEVIVSQYAFAAYAIAAQASGATVRVAPARDYGHDLDAMASLLNANTRLVFIANPNNPTGTYLTADALETFIDSVPSHALVVLDEAYLELMDAADYPDGRRWLRRFGNLMLTRTFSKAYGLAGLRCGYGIGHPDLMAVLERVRQPFNVNTLAQVAAHAALTDRAHLQATLANNRQGIVALRDGLCNLGLTILPPAGNFTAFAVPGGGQRVYEALLLRGVIVRPLTPYGMPDHLRVSVGLPVENQRFLTMLGEVL

>  <Property name>
soluble on expression in E. coli

>  <Readout value>
not soluble

$$$$
>  <Biopolymer sequence>
MGSDKIHHHHHHMLYNTDFLSRLTQGVKYLSSAWGLSSEAKLTLLTISENATFRIADENSGRNLIVRVHRPDYHTEAEILSELAWIDALRQDGVVVTPRPISANDGSLLQIFSDGETMRHAVAFEYMAGKEPDAESDLVHWYRTLGEINAKLHAHSRRWTRPENFIRKTWNFNRILGNGAYWGDWRDALGLKPDGKSVLERTHALLETQTSAYGYGEERFGLVHCDMRAANLLVDGDRLGVIDFDDCGLSWFAYDFAAAISFMEHEPFIPDLMAAWLEGYRRVAPLDAQHEAALPMFIMLRRMQLTAWIASHAETPTAQSMGTAYTDGTVALAECYLAEHR

>  <Property name>
soluble on expression in E. coli

>  <Readout value>
not soluble

$$$$
>  <Biopolymer sequence>
MGSDKIHHHHHHMRHIAHYCVAHPAGSMVVPGTRKKRELLPSAAPWRLSGVFVSLDEIRKDWTTLGAAAPLWAVCVDPAKRHGGWDDDEFLASGRAEIDAAMARLAELGIAHGRERALDFGCGAGRLSNALAAYFDRVVGVDISAPMLAEARRLDRSGGRIDFLLNDAPDLKIFPDASFDLVYTDLVLQHLPPPLARGYLAEFARVLRPGGALVAGMPATERRTVKGLVFRYAPHRVIRFIQRVLLGYPAPMRMHTMPPEQMRELLASHGVRVVSAEEYAGDDHGTHWVHMRYYARKDPGAAL

>  <Property name>
soluble on expression in E. coli

>  <Readout value>
not soluble

$$$$
>  <Biopolymer sequence>
MSLAYETFAFVYDEVMDESLYQKWLDFSNRHLPQGTQQILEMACGTGALAVDFAKSGYDVTALDLSEEMLMIASERAFEEEVPVQFVQGNMLDLSEVGQYQAITCFSDSLCYMANRQEVQQVFDEVYQALEEEGTFIFDVHSTYKIDSVFPEYSYHYQTEEFAFLWDSYAGEKEHSIEHFLTFFVKEQETDEHFVRYDELHQERTYSLDNYLRMLESAGFMNVKVYADFTDEAPTETSERWFFVCQRDEGHHHHHH

>  <Property name>
soluble on expression in E. coli

>  <Readout value>
soluble

$$$$
>  <Biopolymer sequence>
ETVIMKYLLPTAAAGLLLLAAQPAMAQVKLQQSGAELVRSGTSVKLSCTASGFNIKDSYMHWLRQGPEQGLEWIGWIDPENGDTEYAPKFQGKATFTTDTSSNTAYLQLSSLTSEDTAVYYCNEGTPTGPYYFDYWGQGTTVTVSSGGGGSGGGGSGGGGSENVLTQSPAIMSASPGEKVTITCSASSSVSYMHWFQQKPGTSPKLWIYSTSNLASGVPARFSGSGSGTSYSLTISRMEAEDAATYYCQQRSSYPLTFGAGTKLELKRAAAEQKLISEEDLN

>  <Property name>
soluble on expression in E. coli

>  <Readout value>
soluble

$$$$
>  <Biopolymer sequence>
MSLADVDTGTLTIKGNIAESPCKFEAGGDSVSINMPTVPTSVFEGKAKYSTYDDAVGVTSSMLKISCPKEVAGVKLSLITNDKITGNDKAIASSNDTVGYYLYLGDNSDVLDVSAPFNIESYKTAEGQYAIPFKAKYLKLTDNSVQSGDVLSSLVMRVAQDEGHHHHHH

>  <Property name>
soluble on expression in E. coli

>  <Readout value>
soluble

$$$$
>  <Biopolymer sequence>
SNAMTTPIRVVVWNEFRHEKKDEQVRAIYPEGMHTVIASYLAEAGFDAATAVLDEPEHGLTDEVLDRCDVLVWWGHIAHDEVKDEVVERVHRRVLEGMGLIVLHSGHFSKIFKKLMGTTCNLKWREADEKERLWVVAPGHPIVEGIGPYIELEQEEMYGEFFDIPEPDETIFISWFEGGEVFRSGCTFTRGKGKIFYFRPGHETYPTYHHPDVLKVIANAVRWAAPVNRGEIVFGNVKPLEPIKAKQGGVTQ

>  <Property name>
soluble on expression in E. coli

>  <Readout value>
soluble

$$$$

--- query ---
Data request: For GMKFNEFLNNLSNYEPGKDIEVIAKEYGVKEVIKLASNENPFGTPPKAIECLRQNANKAHLYPDDSMIELKSTLAQKYKVQNENIIIGAGSDQVIEFAIHSKLNSKNAFLQAGVTFAMYEIYAKQCGAKCYKTQSITHNLDEFKKLYETHKDEIKLIFLCLPNNPLGECLDASEATEFIKGVNEDCLVVIDAAYNEFASFKDSKKHLEPCELIKEFDNVLYLGTFSKLYGLGGLRIGYGIANANIISAFYKLRAPFNVSNLALKAAVAAMDDDEFTEKTLENNFSQMELYKEFAKKHNIKIIDSYTNFITYFFDEKNSTDLSEKLLKKGIIIRNLKSYGLNAIRITIGTSYENEKFFTEFDKILR , what is its reported soluble on expression in E. coli?
Data returned: soluble

Cited source: the DeepSol protein solubility set
